Target: human mGlu5a receptor (Homo sapiens (Human), UniProt P41594)
Sequence (P41594 other isoform, or with tags, fused parts or gaps): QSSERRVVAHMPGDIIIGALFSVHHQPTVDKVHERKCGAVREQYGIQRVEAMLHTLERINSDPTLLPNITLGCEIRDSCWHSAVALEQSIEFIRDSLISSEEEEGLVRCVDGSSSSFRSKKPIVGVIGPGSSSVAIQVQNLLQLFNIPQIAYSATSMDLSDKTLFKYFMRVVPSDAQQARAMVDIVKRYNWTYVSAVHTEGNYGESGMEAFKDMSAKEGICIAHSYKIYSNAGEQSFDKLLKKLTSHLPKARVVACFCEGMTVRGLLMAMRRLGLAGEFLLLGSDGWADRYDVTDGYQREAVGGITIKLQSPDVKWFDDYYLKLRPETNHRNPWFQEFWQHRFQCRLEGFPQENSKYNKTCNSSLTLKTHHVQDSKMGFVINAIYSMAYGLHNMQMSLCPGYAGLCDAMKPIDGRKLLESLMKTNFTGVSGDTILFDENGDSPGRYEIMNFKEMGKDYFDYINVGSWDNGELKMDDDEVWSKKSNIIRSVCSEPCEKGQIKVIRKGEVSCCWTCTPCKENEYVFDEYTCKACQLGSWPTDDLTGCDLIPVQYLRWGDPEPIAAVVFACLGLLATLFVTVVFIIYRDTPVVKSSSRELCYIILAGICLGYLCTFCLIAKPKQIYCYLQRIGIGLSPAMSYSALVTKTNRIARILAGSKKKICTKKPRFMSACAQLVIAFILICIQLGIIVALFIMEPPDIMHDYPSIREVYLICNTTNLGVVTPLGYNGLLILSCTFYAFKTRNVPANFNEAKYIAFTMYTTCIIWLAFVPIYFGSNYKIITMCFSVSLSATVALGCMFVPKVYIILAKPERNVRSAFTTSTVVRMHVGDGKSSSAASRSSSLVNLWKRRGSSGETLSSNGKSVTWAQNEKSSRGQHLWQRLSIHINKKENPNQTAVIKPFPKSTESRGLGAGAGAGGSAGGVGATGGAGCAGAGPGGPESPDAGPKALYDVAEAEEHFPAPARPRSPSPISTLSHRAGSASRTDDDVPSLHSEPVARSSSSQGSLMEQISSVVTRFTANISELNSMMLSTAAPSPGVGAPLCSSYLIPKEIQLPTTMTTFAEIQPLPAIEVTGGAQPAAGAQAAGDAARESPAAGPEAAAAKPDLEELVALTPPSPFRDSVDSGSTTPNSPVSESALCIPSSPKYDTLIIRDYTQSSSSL
Assay: Intracellular Ca2+ mobilization assay (mGlu5 PAM)
Assay type: cell-based
Details: HEK-293 cells stably transfected with human mGlu5a; L-glutamate added at EC20 after pre-incubation with test compound; read-out: EC50 (nM) mGlu5PAM
Source text: A monoclonal HEK-293 cell line stably transfected with a cDNA encoding for the human mGlu5a receptor was generated; for the work with mGlu5 Positive Allosteric Modulators (PAMs), a cell line with low receptor expression levels and low constitutive receptor activity was selected to allow the differentiation of agonistic versus PAM activity. […]
Each entry below carries its reported EC50.
measured.quantity: EC50

>>> reported("CN1C(=O)N(c2ccc(C#Cc3cncnc3)cn2)CC1(C)C [Example 55]")
"54 nM"
>>> reported("CC1CN(c2ncc(C#Cc3ccccc3)cn2)C(=O)OC1(C)C (racemic) [Example 145]")
"38 nM"
>>> reported("CC(C)N1C(=O)N(c2ccc(C#Cc3ccccc3)cn2)CC1(C)C [Example 18]")
"39 nM"
>>> reported("CN1C(=O)N(c2ccc(C#Cc3cccc(F)c3)cn2)CC12CC2 [Example 113]")
"51 nM"
>>> reported("O=C1O[C@H]2CCC[C@@H]2CN1c1ccc(C#Cc2ccccc2)cn1 (racemic) [Example 102]")
"43 nM"
>>> reported("Cn1cc(C#Cc2ccc(N3CC(C)(C)OC3=O)nc2)cn1 [Example 31]")
"26 nM"
>>> reported("CC1(C)CCN(c2cnc(C#Cc3cccc(F)c3)cn2)C(=O)N1 [Example 166]")
"140 nM"
>>> reported("CC1(C)CCN(c2ccc(C#Cc3ccccc3)nn2)C(=O)O1 [Example 153]")
"14 nM"
>>> reported("O=C1OC2COCCC2N1c1ccc(C#Cc2ccccc2)cn1 (stereo not drawn) [Example 94]")
"60 nM"
>>> reported("CN1C(=O)N(c2ccc(C#Cc3ccccc3)cn2)[C@@H]2CCC[C@@H]21 (racemic) [Example 106]")
"30 nM"
>>> reported("CC1(C)CN(c2ccc(C#Cc3cccc(F)c3)cn2)C(=O)O1 [Example 6]")
"9 nM"
>>> reported("CC1(C)CCC(=O)N(c2ccc(C#Cc3ccccc3)cn2)C1 [Example 42]")
"16 nM"
